System: Escherichia coli | Read-out: MIC
One number for each entry, in µg/mL.

CN1COc2c(N3CCC(Nc4cnccn4)C3)c(F)cc3c(=O)c(C(=O)O)cn1c23 (centres unmarked)
0.25

Please give MIC for each item listed below.
1. CN1COc2c(N3CC[C@H](NC(=O)C(F)(F)F)C3)c(F)cc3c(=O)c(C(=O)O)cn1c23
2. CN1COc2c(N3CCC(CNc4cnccn4)C3)c(F)cc3c(=O)c(C(=O)O)cn1c23 (centres unmarked)
3. CN1COc2c(N3C[C@@H](N)C(C)(C)C3)c(F)cc3c(=O)c(C(=O)O)cn1c23
4. CN1COc2c(N3CC(N)C(C)(C)C3)c(F)cc3c(=O)c(C(=O)O)cn1c23 (racemic)
5. CN1COc2c(N3C[C@H](N)C(C)(C)C3)c(F)cc3c(=O)c(C(=O)O)cn1c23

1: 0.03; 2: 0.25; 3: 0.03; 4: 0.06; 5: 0.06
